target: Tyrosine-protein kinase JAK1 (Homo sapiens)
Sequence (P23458 whole entry): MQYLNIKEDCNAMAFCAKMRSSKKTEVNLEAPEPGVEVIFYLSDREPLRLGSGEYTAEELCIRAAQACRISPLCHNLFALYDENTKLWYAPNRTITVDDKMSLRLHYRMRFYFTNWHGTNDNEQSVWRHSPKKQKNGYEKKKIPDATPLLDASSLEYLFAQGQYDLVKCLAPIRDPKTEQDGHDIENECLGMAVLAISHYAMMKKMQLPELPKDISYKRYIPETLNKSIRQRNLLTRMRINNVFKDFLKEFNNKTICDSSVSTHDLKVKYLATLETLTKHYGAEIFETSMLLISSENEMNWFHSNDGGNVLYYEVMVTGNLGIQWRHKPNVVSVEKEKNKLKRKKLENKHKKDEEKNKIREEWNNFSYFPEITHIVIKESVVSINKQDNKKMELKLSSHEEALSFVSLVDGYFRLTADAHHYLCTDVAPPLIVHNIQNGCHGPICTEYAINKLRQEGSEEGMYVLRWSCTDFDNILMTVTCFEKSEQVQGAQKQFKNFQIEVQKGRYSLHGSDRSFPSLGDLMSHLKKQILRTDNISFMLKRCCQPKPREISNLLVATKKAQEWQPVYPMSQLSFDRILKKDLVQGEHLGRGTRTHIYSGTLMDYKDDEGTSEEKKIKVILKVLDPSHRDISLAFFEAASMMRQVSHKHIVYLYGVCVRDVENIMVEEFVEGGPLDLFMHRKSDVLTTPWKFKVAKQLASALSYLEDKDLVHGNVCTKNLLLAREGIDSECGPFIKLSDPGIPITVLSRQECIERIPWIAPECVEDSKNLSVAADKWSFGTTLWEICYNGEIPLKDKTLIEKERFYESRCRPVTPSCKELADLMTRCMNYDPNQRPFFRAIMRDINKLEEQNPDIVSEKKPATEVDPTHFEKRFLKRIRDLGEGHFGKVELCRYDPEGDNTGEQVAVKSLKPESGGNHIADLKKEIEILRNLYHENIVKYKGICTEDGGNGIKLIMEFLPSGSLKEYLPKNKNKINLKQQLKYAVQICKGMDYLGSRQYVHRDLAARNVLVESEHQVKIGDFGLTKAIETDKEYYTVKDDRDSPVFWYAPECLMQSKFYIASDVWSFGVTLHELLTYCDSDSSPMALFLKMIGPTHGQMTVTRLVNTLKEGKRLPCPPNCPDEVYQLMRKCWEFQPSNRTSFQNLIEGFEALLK
property.label: IC50 (nM)

N#CC[C@@H](NCC1CCC(N2C=CC(=O)C3C=Nc4[nH]ccc4C32)CC1)C(F)(F)F (stereo not given in full) : 1.7
O=C1C=CN(C2CCC(COCCC(F)(F)F)CC2)C2c3cc[nH]c3N=CC12 (stereo not given) : 0.68
N#CC[C@H](OCC1CCC(N2C=CC(=O)C3C=Nc4[nH]ccc4C32)CC1)C(F)(F)F (stereo not given in full) : 0.74

1: O=C1C=CN(C2CCC(COCC(F)(F)F)CC2)C2c3cc[nH]c3N=CC12 (stereo not given)
2: O=C1NC(=O)[C@@H](C2CCC(COCCC(F)(F)F)CC2)C2c3cc[nH]c3N=CC12 (stereo not given in full)
Which value of IC50 is smaller, the one for 1 or the one for 2 ? Answer by stating the label of the chosen item.
2
